# PROTOCOL_SUMMARY: qHTS profiling of the MIPE4 collection as inhibitors of Plasmodium falciparum (3D7) proliferation (AID 743344);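 further: scaled between DMSO vehicle wells and 0.29 µM artemisinin as full inhibition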
# ASSAY_CONTEXT: P. falciparum 3D7 in erythrocytes, SYBR Green DNA fluorescence, 72 h; at 28.5 µM unless noted
Listed next: entries and their corresponding parasite growth, % of DMSO control.

# annotated cases, reported parasite growth, % of DMSO control shown
[[record]]
record_smiles = "CN[C@@H]1CN(c2ccc3c(=O)c(C(=O)O)cn(-c4nccs4)c3n2)C[C@@H]1OC"
metric = "parasite growth, % of DMSO control"
recorded_result = "9.37% [at 9.64 µM]"

[[record]]
record_smiles = "CO[C@H]1C=CO[C@@]2(C)Oc3c(C)c(O)c4c(O)c(c(C=NN5CCN(C)CC5)c(O)c4c3C2=O)NC(=O)C(C)=CC=C[C@H](C)[C@H](O)[C@@H](C)[C@@H](O)[C@@H](C)[C@H](OC(C)=O)[C@H]1C"
metric = "parasite growth, % of DMSO control"
recorded_result = "5.51% [at 5.51 µM]"


Next up:
# molecule `CC=C(C(=CC)c1ccc(O)cc1)c1ccc(O)cc1` ; its parasite growth, % of DMSO control = 61.7%
